# experiment description: melting temperature; fluorescence melt of hairpins on a sequencing array, two-state fit, raised by 9.35 °C to match UV melts
# protocol conditions: sodium 0.088 M
# strict inequality: Tm < 50 °C yields condition met, everything else yields condition not met

construct sequence | assigned category
GAGGTACGAAAGTAACTC (((.(((....))).))) | condition not met
GATCCACACTTGGATC ((((((....)))))) | condition not met
CGGACCGGAAACGGCCCG (((.(((....))).))) | condition not met
GTCCTCGGAAACGAGAAC ((.((((....)))).)) | condition met
GAAGGGGGAAACTCCTTC (((((.(....).))))) | condition met
GTGTCCGAAAGGACCCAC ((((((....)))..))) | condition met
GCGAACCGAAAGGTCGC (((.(((....)))))) | condition not met
GGGACCCCGAAAGGGCCC (((..(((....)))))) | condition not met
GAGGGTGGAAACGCCTTC ((.((.(....).)).)) | condition met
GATCTTAGGAAAGATC ((((((....)))))) | condition met

* * *

# experiment description: folding enthalpy; higher = less favourable; fluorescence melt of hairpins on a sequencing array, two-state fit
# protocol conditions: sodium 0.088 M

construct sequence | folding enthalpy [kcal/mol]
GAGGCCGAAAGGCTGCTC ((((((....)))..))) | -12.1
GATCATCGACATGATC ((((((....)))))) | -30.4
TTCGAGAAATCGAA (((((....))))) | -12.4
GATCAGTTCCTGATC ((((((...)))))) | -42.9
GAGCGCCGAAAGGCCCTC (((.(((....))).))) | -15.4
GATCACTATAGTGATC ((((((....)))))) | -38.1
GACAGAGGAAACCCTGTC (((((.(....).))))) | -32.9
GCATGCGGAAACGCACGC ((.((((....)))).)) | -25.7
GTTTGGGGAAACTCAAAC (((((.(....).))))) | -31.7
CGTGTACGGAAACGTACG (((..(((....)))))) | -8.98
GATCTCGACGGAGATC ((((((....)))))) | -48.4
GATCACGACCGTGATC ((((((....)))))) | -46.1

* * *

# experiment description: melting temperature; fluorescence melt of hairpins on a sequencing array, two-state fit, raised by 9.35 °C to match UV melts
# protocol conditions: sodium 0.088 M
// map Tm onto a label; ranges range 1 (below 40 °C), range 2 (40 °C to below 50 °C), range 3 (50 °C or more)

construct sequence | assigned category
GCCTCGGGAAACTGAGGC (((((.(....).))))) | range 3
ACCCTGAAAAGGGT (((((....))))) | range 3
GGAGCAGAAATGCTCC ((((((....)))))) | range 3
GTGATAGGAAACTATCAC (((((((....))))))) | range 3
GGGATTGGAAACGATCCC (((((.(....).))))) | range 3
GATCGTATACACGATC ((((((....)))))) | range 3
GACCGTGCGAAAGCAGTC (((..(((....)))))) | range 1
GAGCGGGGAAACCCGTTC ((.((((....)))).)) | range 3
GATCAATAGATTGATC ((((((....)))))) | range 2
GCCAGAGGAAACCCTGGC (((((.(....).))))) | range 3
GCAGTCGAAAGACCTTGC ((((((....)))..))) | range 1
GCGATGCGAAAGCAGTGC ((..(((....)))..)) | range 3
GCTCTTCCGAAAGGAAGC (((..(((....)))))) | range 1
GATCTCCCCTGAGATC ((((((....)))))) | range 3
GTGCGCGAAAGCGTGCAC ((((((....)))..))) | range 3
GATCAATAAGTTGATC ((((((....)))))) | range 2
GCCAGGCGAAAGCCACGC ((..(((....)))..)) | range 1
GGTTGTCGAAAGACGACC (((.(((....))).))) | range 3
GGAGAGGGAAACCCCTCC ((((.((....)).)))) | range 2
GAGCCCGAAAGGGTACTC ((((((....)))..))) | range 2
GCTAGAGGAAACCCTAGC (((((.(....).))))) | range 2
GCCATGCGAAAGCACAGC ((..(((....)))..)) | range 1
GATCCGGTATCGGATC ((((((....)))))) | range 3
GCACACGAAAGTGTGTGC ((((((....)))..))) | range 3
GAATGAGGAAACTTATTC ((((.((....)).)))) | range 1
GCAATCCGAAAGGAATGC (((.(((....))).))) | range 3
GCATGGCGAAAGCCCAGC ((..(((....)))..)) | range 2
GCAACGCGAAAGCTTTGC ((((.((....)).)))) | range 3
GCTCAGCGAAAGCCGTGC ((.(.((....)).).)) | range 2
GATCCAACAATGGATC ((((((....)))))) | range 2
GCGCTGCGAAAGCGGTGC ((.(.((....)).).)) | range 3
GCCTCGCGAAAGCGCTGC ((..(((....)))..)) | range 1
GCGGTAGGAAACTGCTGC ((.(.((....)).).)) | range 2
GACCCCGGAAACGGGGCC (.(((((....))))).) | range 3
GAAGGTGCGAAAGCATTC (((..(((....)))))) | range 1
GGAGATCGAAAGATTCC (((.(((....)))))) | range 1
GCGGATGGAAACGTTCGC (((.(.(....).).))) | range 2
GGATACGCGAAAGCGTCC (((..(((....)))))) | range 1

* * *

Listing of entries alongside the reported Tm.
# experiment description: melting temperature; fluorescence melt of hairpins on a sequencing array, two-state fit, raised by 9.35 °C to match UV melts
# protocol conditions: sodium 0.088 M

construct sequence | Tm [°C]
GCGTACGGAAACGCACGC ((((.((....)).)))) | 55.4
GATCATTGGAATGATC ((((((....)))))) | 46.5
GATCCGGGATCGGATC ((((((....)))))) | 61.9
GGTACTGGAAACAATACC ((((.((....)).)))) | 26.7
GTCGTGGGAAACCATGAC (((.(((....))).))) | 52.5
GCAGCGCGAAAGCCCTGC ((((.((....)).)))) | 60.1
GCCAAGCGAAAGCTATGC ((..(((....)))..)) | 33.9
GTAGTCGAAAGACAGTAC ((((((....)))..))) | 27.2
GCCGGCGAAAGCCTGGC ((((((....))).))) | 68.8
GTTTGACGAAAGTCGAAC (((.(((....))).))) | 57.8
GTACTCCGAAAGGACTAC (((.(((....))).))) | 33.2
GATCCGGGAAACCGGGTC ((.((((....)))).)) | 54.5
GCATACGCGAAAGCGTGC (((..(((....)))))) | 48.7
GGTTTGGGAAACTAAGCC ((.((.(....).)).)) | 30.2
GCTCAGCGAAAGCCAAGC (((..((....))..))) | 41
CGTGCGGAAACGCGGACG ((((((....)))..))) | 47
GCTACGCGAAAGCCTGGC ((.(.((....)).).)) | 34.4
GATCGAATTTCGATC ((((((...)))))) | 51.5
GGGCACGAAAGTGCACCC ((((((....)))..))) | 58.2
GAGACAGGAAACTGTCCC (.(((((....))))).) | 39.4
GAACCGCGAAAGCGTTC (((.(((....)))))) | 44
GCGACAATTCGC ((((....)))) | 44.8
GTGCTCGAAAGAGACAC ((((((....))).))) | 47.3
GGTGCTGGAAACAGCGTC (..((((....))))..) | 41
GCGGAAGACCGC ((((....)))) | 52.8

* * *

Recorded measurements of folding enthalpy, one per entry
# experiment description: folding enthalpy; higher = less favourable; fluorescence melt of hairpins on a sequencing array, two-state fit
# protocol conditions: sodium 0.088 M
measurement name: folding enthalpy (kJ/mol)

construct sequence | measurement name | data value
GGAGAGCGAAAGCTTCC (((.(((....)))))) | folding enthalpy | -76.2
GAATATGGAAACATGTTC (((.(((....))).))) | folding enthalpy | -136
GCTACGCGAAAGCGAGGC ((..(((....)))..)) | folding enthalpy | -63
GATCATCTGGATGATC ((((((....)))))) | folding enthalpy | -188
GATCGGTTACCGATC ((((((...)))))) | folding enthalpy | -151
GCATTCGAAAGAAAGTGC ((((((....)))..))) | folding enthalpy | -52.1
GGTTAGGGAAACCTGATC (.(.(((....))).).) | folding enthalpy | -48.9
GTGAGACGAAAGTCCAC (((.(((....)))))) | folding enthalpy | -95.5
GATATGGGAAACCATACC (.(((((....))))).) | folding enthalpy | -62.8
GCGACTAATCGC ((((....)))) | folding enthalpy | -101
GTTGTAGGAAACTACGAC ((.((((....)))).)) | folding enthalpy | -109
GCAGCTGCGAAAGCATGC (((..(((....)))))) | folding enthalpy | -48.5
GATCAATGATTGATC ((((((...)))))) | folding enthalpy | -125
GCACCGCGAAAGCCCTGC (((..((....))..))) | folding enthalpy | -30.3
GCGCCAGGAAACTGGTGC ((.((((....)))).)) | folding enthalpy | -128
GCAGAGCGAAAGCTTTGC (((.(((....))).))) | folding enthalpy | -223
GGTTGCGAAAGCAAAACC ((((((....)))..))) | folding enthalpy | -81.5
GATCCACACGTGGATC ((((((....)))))) | folding enthalpy | -147
GATCTCATTGAGATC ((((((...)))))) | folding enthalpy | -146
GGAATGAAAATTCC (((((....))))) | folding enthalpy | -93.4
GAAGTAGGAAACTGCTTC ((((.((....)).)))) | folding enthalpy | -144
CGCGGAATAGTCCGCG ((((((....)))))) | folding enthalpy | -107
GATTTTGGAAACAAGATC (((.(((....))).))) | folding enthalpy | -93.6
AGCCAGAAATGGCT (((((....))))) | folding enthalpy | -79.8
GTACATCGAAAGATCTAC (((.(((....))).))) | folding enthalpy | -42.8
GCTGGGGGAAACCTCGGC ((.(.((....)).).)) | folding enthalpy | -121
GATCTCGCCAGAGATC ((((((....)))))) | folding enthalpy | -155
GCTCGAGGAAACTCAAGC (((.(((....))).))) | folding enthalpy | -128
GCCTACCGAAAGGTGGC (((.(((....)))))) | folding enthalpy | -106
GCATAGCGAAAGCGCTGC (((..((....))..))) | folding enthalpy | -69
GTTTGGGGAAACTCGAAC (((.(.(....).).))) | folding enthalpy | -73.8
GCTAGTGGAAACACTGGC ((.((((....)))).)) | folding enthalpy | -135
AATCCGAAAGGATT (((((....))))) | folding enthalpy | -74.5
GCTGGGCGAAAGCCACGC ((..(((....)))..)) | folding enthalpy | -65.1
GAGAGCGAAAGCTAGCTC ((((((....)))..))) | folding enthalpy | -57.9
CTAGAGAAATCTAG (((((....))))) | folding enthalpy | -33.3
GTGTACGAAAGTACTCAC ((((((....)))..))) | folding enthalpy | -47.8
CGCGGACGAATCCGCG ((((((....)))))) | folding enthalpy | -139
GATCTAGAGTTAGATC ((((((....)))))) | folding enthalpy | -100
GCTGTCGAAAGACCGAGC ((((((....)))..))) | folding enthalpy | -88
GACGCCGAAAGGCTGTC ((((((....))).))) | folding enthalpy | -77.1
GTAGTAGAAATACTAC ((((((....)))))) | folding enthalpy | -109
GTCGTGAAAACGAC (((((....))))) | folding enthalpy | -128
GTATCCGAAAGGACTAC ((((((....))).))) | folding enthalpy | -60
GTCGGCGGAAACGTCGAC ((((.((....)).)))) | folding enthalpy | -215
GCTGCCGAAAGGCCGAGC ((((((....)))..))) | folding enthalpy | -58.4
GCATTACGAAAGTACTGC (((.(((....))).))) | folding enthalpy | -153
GGGATGTCGAAAGACCCC (((..(((....)))))) | folding enthalpy | -78.8
GCGTAGAAATACGC (((((....))))) | folding enthalpy | -105
GCGTTTGACGC ((((...)))) | folding enthalpy | -76.4
GGCCTTCCGAAAGGAGCC (((..(((....)))))) | folding enthalpy | -80

Data origin, for the record: the array DNA melting data of Ke et al. (doi:10.1101/2024.01.08.574731)
